All figures here come from the EternaBench riboswitch data.

- Tested on: MS2 coat protein
- Test name: apparent Kd, MS2 coat protein; higher = weaker binding; RNA-MaP array; FMN 200 µM where present
- Experimental setup: ligand present: flavin mononucleotide; designed as: OFF switch for flavin mononucleotide
Value kind: apparent Kd (nM)
Return type: number; implicit unit nM.

Below, 5 sequences whose answers are already recorded.
AAGAAGUGAGGAUAUCGAAGACAGACGAAAAGUCUGUCAAACGAGAAGGCACAUGAGGAUCACCCAUGUAAGAA : 35.2
UGAUCGAAAGAUCAUAGAUUCUGGCAGGAUAUGCAGUAGUUUUAAUUUACAUGAGGAUCACCCAUGUAGAAGGGCUAGAGUCUA : 7.4
CCCGUGUGUUAAGGAUAUGGCAGGCGCGUUGAACCAGAAGGUAGCACAUGAGGAUCACCCAUGUGAAUGCUCGCGACUCGAGCG : 18.2
CUGAUGUCAGGAUAUCAGAAAAGGUGCAAGGACGCACCAAAUGAGAAGGGACAUGAGGAUCACCCAUGUAAAAC : 122
GAAACCUCAGGUUAAGGUUGACGACAUGAGGAUCACCCAUGUAGAAGGACCAAGGCGACCGUACGGUAGGAUAUACACGGGAGG : 24.9

Note to self: apparent Kd recorded for `ACAUCUCGAGCCGACGGGAGAGUACAUGAGGAUCACCCAUGUGAGGAUAUCCCUGAGAAGACGGCGGAGAAGGCACUGGGUAGG` was 10.4

Note to self: apparent Kd recorded for `AAUAUAAGAGCUGGACUCAAAAGAACAUGAGGAUCACCCAUGUAGGAUAUCAGCACGAUAAGUGCUGAGAAGGACAACCAGCUC` was 15.2

Note to self: apparent Kd recorded for `AAUAUGUUGCAGAAGGCUAUAUUUUUUUAGUACCUCAUGACAUGAGGAUCACCCAUGUUUUUGUUGGAGGAUAUGCAAUAUAUU` was 7.56

###

- System: MS2 coat protein
- Test name: apparent Kd, MS2 coat protein; higher = weaker binding; RNA-MaP array
- Experimental setup: designed as: OFF switch for flavin mononucleotide; no ligand
# key: entry, value: apparent Kd
Return type: number; implicit unit nM.

CGAACGGGCCACACUACAUGAGGAUCACCCAUGUUCGAAGAUAGAAGGUGUAGCUGGCCUCGUUACAAGGAUAUAUCUUAUACC : 29.2

Note to self: apparent Kd recorded for `ACACAUGAGGAUCACCCAUGUCGUGAGAGCUCAGUCGUGCGUUAGGAUAUCAUUCUGUUAGUGUUUGAGAAGGAACGGGUAACC` was 50.1

Note to self: apparent Kd recorded for `GCAGUAAGAGAGGAUAUGAUGGACGCAAGGGCGUCAGAAGGCUCUACAUGAGGAUCACCCAUGUGAAGUUCAUA` was 6.12

Note to self: apparent Kd recorded for `CCAAGAGUACUAGGAUAUUCCGGCCACGCACAUGAGGAUCACCCAUGUGAGACUCUCAGACGGUCGAAGAAGGAGUUGCAGGCU` was 34.8

Note to self: apparent Kd recorded for `CCGGUCCACUAGGAUAUGCGGAGUGUAUAUCACGCAGAAGGAGUCACAUGAGGAUCACCCAUGUGCGUGGGUUG` was 9.4

Note to self: apparent Kd recorded for `AUUGAGACCUAGAAGGCGAAAACAUGAGGAUCACCCAUGUAGAUAACACCUACAUGAGCGAAAUACGAGGAUAUAGGAAAACUC` was 356

Note to self: apparent Kd recorded for `UCAGCUAGACAGGAUAUAGAGAAUCAAGAACAGCUAGAAGGGUCAACAUGAGGAUCACCCAUGUGGUGGUACUG` was 477

###

- Test system: MS2 coat protein
- Test name: apparent Kd, MS2 coat protein; higher = weaker binding; RNA-MaP array; FMN 200 µM where present
- Experimental setup: designed as: ON switch for flavin mononucleotide; no ligand
We use 200 nM as the dividing line for apparent Kd: on or above the line is Criterion met, below is Criterion not met.

GUGUGAUUAAGAGGAUAUAUACAACAUGAGGAUCACCCAUGUACCCGUGUAGUAGAAGGUUUGUUUUUAUAUAAUAUUAUAAUU : Criterion not met
ACAUACAUUCGAGGAUAUCGGUGAGAAAUCUUACGAGAAGGCGAUUCAUGAUUUAUUAUCCUGGACAUGAGGAUCACCCAUGUA : Criterion not met
CCGGAAACGGGUAGCUCACAUGAGGAUCACCCAUGUGAAACACAGGAUAUGGAUCCUAAUUGGAUCCAGAAGGGUGUGAGCUAC : Criterion not met
UUGCCUCAGAACAUGAGGAUCACCCAUGUGCUGCGGGCAUCGUAGGAUAUGAUGGUAUGAUACCAUCAGAAGGAUGAUGGUACC : Criterion not met
AAUUAAGAUCUAGGAUAUCACGUCGAUUAGACGUGAGAAGGAGAUCAUAACAUGAGGAUCACCCAUGUAUUACAUGAAUUAAUU : Criterion not met

Assess whether reported apparent Kd for `GUAGCAUAAUUAGGAUAUUCAGCGAAUAGAUUGACAUGAGGAUCACCCAUGUGGCGAAAGCCGAGGGAGAAGGGAUAAUGCUAC` sits at 200 nM or higher.
Criterion not met

Assess whether reported apparent Kd for `GUUUCUAUAAGUUAUAUUUAACAGUCAGAAGGUGAUACUACGACAUGAGGAUCACCCAUGUAAUUCAAGGAUAUGAACUUAAUC` sits at 200 nM or higher.
Criterion met

Assess whether reported apparent Kd for `AAGAUACAUGAGGAUCACCCAUGUCGAGAGAGACGAGGAUAUCUGAAUCGAUUAGAUUACGGAGAAGGCGUGAAAA` sits at 200 nM or higher.
Criterion not met

Assess whether reported apparent Kd for `UUGGACGUCGUAGGAUAUGCAGGAUAUUCCUACAUGAGGAUCACCCAUGUUGACAUGGAAGAAGGACAGAAGGACGAUGUCCAU` sits at 200 nM or higher.
Criterion not met

Assess whether reported apparent Kd for `GUUUGUUAUUAGAAGGUGCCGGCGAGAGCCGCAACAUGAGGAUCACCCAUGUGUCGGUGACGACGCAAGGAUAUGGUGGUGGAU` sits at 200 nM or higher.
Criterion met

Assess whether reported apparent Kd for `UUUUUAUAAUAGAAGGAGGACUUCAUGAGGAUCACCCAUGUGUUAGUACUUAGGAUAUGUAAUAACAUGAGGAUCACCCAUGUC` sits at 200 nM or higher.
Criterion not met

###

- System: MS2 coat protein
- Test name: apparent Kd, MS2 coat protein; higher = weaker binding; RNA-MaP array; FMN 200 µM where present
- Experimental setup: designed as: OFF switch for flavin mononucleotide; no ligand
Value kind: apparent Kd (nM)
Return type: number; implicit unit nM.

Below, 10 sequences whose answers are already recorded.
AUUAAAACAUAGGAUAUCGAAUUUAUCAUUUAACGAGAAGGAUGAACAUGAGGAUCACCCAUGUGGUAUCAUGG : 361
UUGUUGUAUGUAGGAUAUGCGUAUUAUUAUUAUGCAGAAGGACAUGAGGAUCACCCAUGUAUAUUAUUAUUAUAUGUUAUAUAU : 26.2
UGAUCGAGAGAUCUUAGAUUCUGGUAGGAUAUAAAACAAUUGCGCUUUACAUGAGGAUCACCCAUGUAGAAGGACUAGAGUCUA : 6.72
UUAGAAUUUGCAGGAUAUUGUAUUUUAUUACAUCAAGAAGGGCAUUACAUGAGGAUCACCCAUGUUAACAUGGUUAUAAAUUUU : 94.8
GUAGUGUAUGUAGGAUAUGUGAAGCAAAGCUUCACAGAAGGACAUGAGGAUCACCCAUGUAUUGCAGUCAGCAAUCUGACUGCU : 41
GUUCUGUUAGGAUAUUGGAAAUCCGUAGCUGUGGCGCGCUUCAAGAAGGAACAUGAGGAUCACCCAUGUGAAAU : 25
UGAUCUAUGUAGAAGGCCCAUAUCUAUAUUUAGGGAGGAUAUACAUGAGGAUCACCCAUGUAUAGAGCUAGUGGACUAGUCACC : 20.9
CGGCAUGUCUGAGGAUAUCUGCACGUUUAGUGCAGAGAAGGCAGAACAUGAGGAUCACCCAUGUAGAUCAUUAACCGAUUAAUU : 228
AAUAAACAUGAGGAUCACCCAUGUAAGGAUAUGCGAACAAUAAGAAGACAAUAAUAAAGCAGAAGGUACAAGAG : 78.1
ACAUGAGGAUCACCCAUGUACAGGGUUUAGUUUCAUUGUUUGAAGGAUAUACUUAGUUAGUUGUUGUAGAAGGUCAUAUUUUAU : 203

In the following, a different sequence is considered.
Note to self: apparent Kd recorded for `UUUUUACAUGAGGAUCACCCAUGUCAGGAUAUGUUUAUAUUUUAUUAUUUUAUUUUUUACAGAAGGGACUAUUA` was 136

###

- System: MS2 coat protein
- Test name: apparent Kd, MS2 coat protein; higher = weaker binding; RNA-MaP array
- Experimental setup: ligand present: flavin mononucleotide; designed as: OFF switch for flavin mononucleotide
Value kind: apparent Kd (nM)
Return type: number; implicit unit nM.

Below, 2 sequences whose answers are already recorded.
AAUAGUUCUGGAGGAUAUUGUACAUGAGGAUCACCCAUGUUAUCUACUGCUAUGGUUGACCUGCGCAAGAAGGCCACGUUCCUG : 20.5
GCAAAGUAAGAAGGAUAUGCGUCCGGUGAACAACAACGCGAUCGAACAUGAGGAUCACCCAUGUCGCAGAAGGUCUGAGAAUUC : 40.3

In the following, a different sequence is considered.
The value of apparent Kd recorded for `GCGGGUUACCCAGAAUGAGAAACAUGAGGAUCACCCAUGUAGAAGGAUAUAGAGUCUUGGUCUGCCUAGAAGGUCUAUAAUUGA` when tested on MS2 coat protein reads 19.9
